target: UniProtKB P25024; experiment: Compound 1 selectivity panel, buffer IC50; settings: Receptor CXCR1
Sequence (P25024 whole entry, species assumed): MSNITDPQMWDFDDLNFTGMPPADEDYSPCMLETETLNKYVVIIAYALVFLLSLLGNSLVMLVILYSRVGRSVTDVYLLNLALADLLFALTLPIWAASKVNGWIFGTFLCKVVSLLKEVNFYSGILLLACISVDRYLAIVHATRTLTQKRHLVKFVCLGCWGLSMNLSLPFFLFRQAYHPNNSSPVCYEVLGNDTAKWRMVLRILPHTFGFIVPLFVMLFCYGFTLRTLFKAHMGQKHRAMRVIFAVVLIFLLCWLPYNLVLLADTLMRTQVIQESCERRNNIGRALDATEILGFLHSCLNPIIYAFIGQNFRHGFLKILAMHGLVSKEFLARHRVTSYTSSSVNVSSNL
pIC50: −log10 of the molar value.
readout.type: pIC50

Input: Enter reported pIC50 observed with UniProtKB P25024 for C[C@@H](Nc1cc(C2CCN([C@H]3CCCN(CCC(=O)O)C3)CC2)ccc1Cl)c1ccc(Cl)cc1Cl [Compound 1]
Output: < 5.00

====

target: CCR7 (Homo sapiens, UniProt P32248); test: Compound 1 selectivity panel, buffer IC50; conditions: Receptor CCR7
Sequence (P32248 25-378, species assumed): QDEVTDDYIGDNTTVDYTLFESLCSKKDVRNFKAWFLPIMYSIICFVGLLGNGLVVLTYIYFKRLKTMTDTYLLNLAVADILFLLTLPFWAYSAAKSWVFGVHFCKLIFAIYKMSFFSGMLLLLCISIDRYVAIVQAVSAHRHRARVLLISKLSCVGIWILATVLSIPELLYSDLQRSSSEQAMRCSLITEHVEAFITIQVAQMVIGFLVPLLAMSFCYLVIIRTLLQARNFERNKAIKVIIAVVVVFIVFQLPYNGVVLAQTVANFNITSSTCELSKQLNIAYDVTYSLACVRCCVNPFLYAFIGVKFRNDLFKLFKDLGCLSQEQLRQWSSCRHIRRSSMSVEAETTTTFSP
pIC50: −log10 of the molar value.
readout.type: pIC50

Input: Field request: pIC50 | item: "C[C@@H](Nc1cc(C2CCN([C@H]3CCCN(CCC(=O)O)C3)CC2)ccc1Cl)c1ccc(Cl)cc1Cl"
Output: < 5.00

====

Biological target: CCR6 (Homo sapiens)
Sequence (P51684 1-374): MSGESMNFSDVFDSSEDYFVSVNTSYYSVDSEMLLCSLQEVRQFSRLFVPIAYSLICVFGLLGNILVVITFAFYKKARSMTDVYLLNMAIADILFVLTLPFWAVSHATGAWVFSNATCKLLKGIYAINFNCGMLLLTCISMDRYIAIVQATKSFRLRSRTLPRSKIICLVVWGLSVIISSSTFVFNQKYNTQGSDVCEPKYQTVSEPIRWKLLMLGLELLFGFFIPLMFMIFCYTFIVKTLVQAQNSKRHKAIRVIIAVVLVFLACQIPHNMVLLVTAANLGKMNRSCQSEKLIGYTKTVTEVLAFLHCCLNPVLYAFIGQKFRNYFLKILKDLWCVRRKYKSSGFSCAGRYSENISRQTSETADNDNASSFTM
Experiment: Compound 1 selectivity panel, buffer IC50
Settings: Receptor CCR6
readout.type: IC50

Input: Field request: IC50 | item: "C[C@@H](Nc1cc(C2CCN([C@H]3CCCN(CCC(=O)O)C3)CC2)ccc1Cl)c1ccc(Cl)cc1Cl"
Output: > 10 µM

====

Biological target: CXCR2 (Homo sapiens, UniProt P25025)
Sequence (P25025 1-360): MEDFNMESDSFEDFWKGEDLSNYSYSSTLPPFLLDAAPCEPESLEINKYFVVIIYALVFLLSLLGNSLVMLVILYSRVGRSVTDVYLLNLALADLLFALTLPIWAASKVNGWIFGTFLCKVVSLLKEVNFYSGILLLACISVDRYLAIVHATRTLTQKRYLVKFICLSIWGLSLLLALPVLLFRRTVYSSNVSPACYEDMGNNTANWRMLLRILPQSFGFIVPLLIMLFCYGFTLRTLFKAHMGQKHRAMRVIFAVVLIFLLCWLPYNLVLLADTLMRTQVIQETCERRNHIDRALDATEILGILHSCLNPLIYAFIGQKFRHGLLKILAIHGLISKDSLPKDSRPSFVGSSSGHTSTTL
Test: Compound 1 selectivity panel, buffer IC50
Conditions: Receptor CXCR2
readout.type: IC50

Input: Enter reported IC50 observed with CXCR2 (Homo sapiens, UniProt P25025) for C[C@@H](Nc1cc(C2CCN([C@H]3CCCN(CCC(=O)O)C3)CC2)ccc1Cl)c1ccc(Cl)cc1Cl [Compound 1]
Output: > 10 µM

====

biological target: CXCR4 (Homo sapiens, UniProt P61073); test: Compound 1 selectivity panel, buffer IC50; conditions: Receptor CXCR4
Sequence (P61073 whole entry, species assumed): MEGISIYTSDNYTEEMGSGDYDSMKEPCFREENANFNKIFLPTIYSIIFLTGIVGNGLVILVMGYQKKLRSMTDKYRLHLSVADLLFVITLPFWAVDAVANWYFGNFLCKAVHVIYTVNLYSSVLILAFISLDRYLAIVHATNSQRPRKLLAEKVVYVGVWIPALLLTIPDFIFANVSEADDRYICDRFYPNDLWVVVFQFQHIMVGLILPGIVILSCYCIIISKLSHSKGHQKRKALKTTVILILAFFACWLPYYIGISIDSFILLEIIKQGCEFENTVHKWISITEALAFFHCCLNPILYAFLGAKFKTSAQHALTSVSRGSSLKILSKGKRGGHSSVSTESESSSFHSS
pIC50: −log10 of the molar value.
readout.type: pIC50

Input: Field request: pIC50 | item: "C[C@@H](Nc1cc(C2CCN([C@H]3CCCN(CCC(=O)O)C3)CC2)ccc1Cl)c1ccc(Cl)cc1Cl"
Output: < 5.00
